measured.target: T1, human histidine-rich glycoprotein (HRG), purified from human plasma (human, UniProt P04196 19-525)
T1 construct: also called human purified HRG; human purified HRG protein
T1 sequence: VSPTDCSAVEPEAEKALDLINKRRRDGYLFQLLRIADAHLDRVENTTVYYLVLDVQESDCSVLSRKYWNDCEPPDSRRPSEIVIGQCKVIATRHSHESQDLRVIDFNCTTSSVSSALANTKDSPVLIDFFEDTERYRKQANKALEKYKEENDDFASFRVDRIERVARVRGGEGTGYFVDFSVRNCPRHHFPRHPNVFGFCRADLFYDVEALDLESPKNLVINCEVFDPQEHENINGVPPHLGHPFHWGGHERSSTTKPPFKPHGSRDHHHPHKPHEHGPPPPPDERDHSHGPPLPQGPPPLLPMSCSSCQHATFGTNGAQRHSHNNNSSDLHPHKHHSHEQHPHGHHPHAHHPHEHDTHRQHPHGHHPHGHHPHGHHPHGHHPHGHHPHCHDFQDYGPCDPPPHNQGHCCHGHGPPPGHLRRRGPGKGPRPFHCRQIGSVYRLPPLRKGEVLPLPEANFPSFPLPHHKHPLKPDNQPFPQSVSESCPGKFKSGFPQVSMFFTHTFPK
assay.info: sandwich ELISA, HRG captured by solid phase 32-4C
readout.name: absorbance at 450 nm

stdin: What value of absorbance at 450 nm has been recorded for this entry: anti-HRG monoclonal antibody 65-3A (antibody, V domains shown, Mouse hybridoma monoclonal) VH: QVILKESGPGILQPSQTLSLTCSFSGFSLSTSGVGVSWIRQPSGKGLEWLAHIYWDDDKHYNPSLKSRLTISKDTSRNQVFLRITSVDTADTATYYCALGTVGGPWFPYWGQGTLVTVSA VL: DVQMNQSHKFMSTSVGDRVSITCKASQDVSTAVAWYQQKPGQSPKILIYWASIRHTGVPDRFTGSGSGTDYTLTISSVQAEDLTLYYCQQHYSTPWTFGGGTKLEIK
stdout: < 1 OD

stdin: What value of absorbance at 450 nm has been recorded for this entry: anti-HRG monoclonal antibody 75-2D (antibody, V domains shown, Mouse hybridoma monoclonal; also called clone No. 75-2D) VH: QVQLQQSGAELMKPGASVKISCKATGYTFSSYWIEWVKQRPGHGLEWIGEILPGSGRTNYNEKFKGKATFTADTSSNTAYMQLSSLTSEDSAVYYCARYSYFYYFDYWGQGTTLTVSS VL: DNVLTQSPAIMSASLGERVTMTCTASSSVSSSYLHWYQQKPGSSPKLWIYSTSNLASGVPARFSGSGSGTSYSLTISSMEAEDAATYYCHQYHRSPWTFGGGTKLEIK
stdout: < 1 OD

stdin: What value of absorbance at 450 nm has been recorded for this entry: anti-HRG monoclonal antibody 3-4E (antibody, V domains shown, Mouse (BALB/c) hybridoma monoclonal, Protein A purified; biotin-labeled when used as detection antibody) VH: QVQLQQSGAELMKPGASVKISCKATGYTFSTFWMEWVKQRPGHGLEWIGEILPGSGNANYNEKFKGKATFTADTSSNTAYMQLSSLTSEDSAVYYCAIHYYGYGFAYWGQGTLVTVSA VL: DNVLTQSPAIMSASLGERVTMTCTASSSVSSSYLHWYQQKPGSSPKLWIYTTSNLASGVPVRFSGSGSGTSYSLTISSMEAEDAATYYCHQYHRSPWTFGGGTKLEIK
stdout: < 1 OD
